// reported EC50 per item
Test system: Hepatitis C virus
Test: Antiviral activity against Hepatitis C virus genotype 1a infected in human HuH7 cells
Assay type: functional, organism-based, Hepacivirus hominis
Conditions: subtype 1a, Huh-7

Completed entries (count: 3):
- COc1ccc(N2CCC(=O)NC2=O)cc1C(C)(C)C: > 100 µM
- COc1c(C(=O)Nc2ccc(NS(C)(=O)=O)cc2)cc(N2CCC(=O)NC2=O)cc1C(C)(C)C: 0.06 µM
- COc1c(C(=O)Nc2ccc(N)cc2)cc(N2CCC(=O)NC2=O)cc1C(C)(C)C: > 50 µM

Look up EC50 of "CC(C)(C)c1cc(N2CCC(=O)NC2=O)cc(C(=O)Nc2ccc(OS(C)(=O)=O)cc2)c1O" and report it.
4.65 µM

Look up EC50 of "CN(c1ccc(NC(=O)c2cc(N3CCC(=O)NC3=O)cc(C(C)(C)C)c2O)cc1)S(C)(=O)=O" and report it.
3.55 µM

Look up EC50 of "CC(C)(C)c1cc(N2CCC(=O)NC2=O)cc(C(=O)Nc2ccc(NS(C)(=O)=O)cc2)c1O" and report it.
0.39 µM

Look up EC50 of "CC(C)(C)c1cc(N2CCC(=O)NC2=O)cc(C(=O)Nc2ccc(NS(=O)(=O)CCN3CCOCC3)cc2)c1O" and report it.
1.96 µM

Look up EC50 of "COc1c(C(=O)Nc2ccc(NS(=O)(=O)CCN3CCOCC3)cc2)cc(N2CCC(=O)NC2=O)cc1C(C)(C)C" and report it.
5.31 µM

These data points were gathered from ChEMBL document CHEMBL2401647.
